experiment: self-splicing fitness, log relative to wild type (ln ratio); higher = more splicing; Tetrahymena group I intron in knt gene, E. coli kanamycin selection, DiMSum; sequences stand for … in CUCUCU…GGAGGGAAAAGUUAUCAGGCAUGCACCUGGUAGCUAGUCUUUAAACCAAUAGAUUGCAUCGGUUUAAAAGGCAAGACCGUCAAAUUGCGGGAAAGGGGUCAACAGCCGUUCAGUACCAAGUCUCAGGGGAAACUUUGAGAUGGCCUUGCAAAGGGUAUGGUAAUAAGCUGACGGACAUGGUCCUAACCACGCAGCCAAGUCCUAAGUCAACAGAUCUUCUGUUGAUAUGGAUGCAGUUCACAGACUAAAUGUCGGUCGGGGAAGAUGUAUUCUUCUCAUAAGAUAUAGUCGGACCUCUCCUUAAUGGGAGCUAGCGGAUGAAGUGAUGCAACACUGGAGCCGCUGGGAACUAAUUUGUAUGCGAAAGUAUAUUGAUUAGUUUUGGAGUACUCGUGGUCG; details: 37 °C;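 note: selection with 25 µg/mL kanamycin versus none on LB agar overnight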
Assay Metric: self-splicing fitness (ln)

Prompt: Look up self-splicing fitness (ln): CCGAAGCAAUAUUACGGACA
Response: -1.57

Prompt: Look up self-splicing fitness (ln): ACGUAGCAAUAUUACGAAUG
Response: -1.53

Prompt: Look up self-splicing fitness (ln): CCAGAGCAAUAUUACGGUUG
Response: -1.04

Prompt: Look up self-splicing fitness (ln): CGGUAGCAAUAUUACGUCCU
Response: 0.121

Prompt: Look up self-splicing fitness (ln): ACUAAGCAAUAUUACGUAGC
Response: -1.25

Prompt: Look up self-splicing fitness (ln): GUGAAGCAAUAUUACGUAAC
Response: -1.23

Prompt: Look up self-splicing fitness (ln): UGAAAGCAAUAUUACGCGAU
Response: -2.37

Prompt: Look up self-splicing fitness (ln): AUUAAGCAAUAUUACGCAGC
Response: -2.72

Prompt: Look up self-splicing fitness (ln): CUGCAGCAAUAUUACGGACG
Response: 0.179
